FYI, the data here is from patent US20160362487A1.

Provide the recorded t½ Ratio (pH 7.4/pH 6.0) for the entries that follow.
- targetOrSystem: T1, cynomolgus monkey IL-33 expressed with a C-terminal hexahistidine tag (cynomolgus monkey)
- T1 construct: also called MfIL-33-6His; Mf-IL-33-6His
- T1 chain: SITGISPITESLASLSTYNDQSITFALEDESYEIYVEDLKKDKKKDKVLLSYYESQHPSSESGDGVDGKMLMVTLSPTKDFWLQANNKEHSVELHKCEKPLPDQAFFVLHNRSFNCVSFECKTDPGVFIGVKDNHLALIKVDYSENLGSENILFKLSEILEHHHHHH
- experimentNotes: SPR 37C, pH6.0 chase, mAb captured
One number for each entry.

Here's what some known entries look like.
| binder | valueKind | observed |
| --- | --- | --- |
| H4H9670P (antibody, V domains shown, Human IgG4 Fc (H4H)) VH: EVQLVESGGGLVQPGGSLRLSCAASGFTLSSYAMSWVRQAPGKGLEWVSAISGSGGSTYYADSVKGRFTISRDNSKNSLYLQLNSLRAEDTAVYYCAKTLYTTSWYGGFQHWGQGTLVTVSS VL: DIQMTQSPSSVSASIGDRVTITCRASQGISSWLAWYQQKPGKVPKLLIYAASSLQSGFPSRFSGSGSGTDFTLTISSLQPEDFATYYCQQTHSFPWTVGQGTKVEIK | t½ Ratio (pH 7.4/pH 6.0) | 0.3 |
| H4H9675P (antibody, human IgG4, V domains shown, Human IgG4 Fc (H4H)) VH: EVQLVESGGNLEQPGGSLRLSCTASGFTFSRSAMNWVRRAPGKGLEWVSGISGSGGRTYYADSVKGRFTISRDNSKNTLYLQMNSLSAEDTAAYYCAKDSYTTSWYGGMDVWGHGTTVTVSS VL: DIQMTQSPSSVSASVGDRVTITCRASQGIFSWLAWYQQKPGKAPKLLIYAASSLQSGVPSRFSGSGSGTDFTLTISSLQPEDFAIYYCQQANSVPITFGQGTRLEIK | t½ Ratio (pH 7.4/pH 6.0) | 1.5 |
| H4H9665P (antibody, human IgG4, V domains shown, Human IgG4 Fc (H4H)) VH: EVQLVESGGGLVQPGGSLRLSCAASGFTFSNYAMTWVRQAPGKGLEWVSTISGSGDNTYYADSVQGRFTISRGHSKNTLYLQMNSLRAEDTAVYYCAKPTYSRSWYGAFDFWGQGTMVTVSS VL: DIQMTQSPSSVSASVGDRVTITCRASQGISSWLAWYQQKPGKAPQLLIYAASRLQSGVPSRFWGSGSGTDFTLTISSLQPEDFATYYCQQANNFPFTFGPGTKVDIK | t½ Ratio (pH 7.4/pH 6.0) | 1.9 |
| H1M9568N (antibody, mouse IgG1, V domains shown, Human variable domains, mouse IgG1 Fc (H1M)) VH: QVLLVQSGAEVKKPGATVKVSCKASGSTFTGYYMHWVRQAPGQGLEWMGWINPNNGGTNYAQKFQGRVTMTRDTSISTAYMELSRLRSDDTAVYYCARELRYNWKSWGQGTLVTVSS VL: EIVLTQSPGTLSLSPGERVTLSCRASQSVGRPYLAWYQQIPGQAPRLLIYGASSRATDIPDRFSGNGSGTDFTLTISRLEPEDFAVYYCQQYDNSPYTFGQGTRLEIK | t½ Ratio (pH 7.4/pH 6.0) | 1.3 |

State the recorded t½ Ratio (pH 7.4/pH 6.0) for every item in the following list.
1. H4H9671P (antibody, human IgG4, V domains shown, Human IgG4 Fc (H4H)) VH: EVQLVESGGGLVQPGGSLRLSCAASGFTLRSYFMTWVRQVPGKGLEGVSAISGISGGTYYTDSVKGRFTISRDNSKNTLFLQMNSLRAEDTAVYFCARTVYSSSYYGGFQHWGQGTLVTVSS VL: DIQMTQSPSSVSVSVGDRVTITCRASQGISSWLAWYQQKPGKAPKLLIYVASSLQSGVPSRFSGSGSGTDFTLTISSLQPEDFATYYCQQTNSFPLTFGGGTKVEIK
2. H4H9667P (antibody, human IgG4, V domains shown, Human IgG4 Fc (H4H)) VH: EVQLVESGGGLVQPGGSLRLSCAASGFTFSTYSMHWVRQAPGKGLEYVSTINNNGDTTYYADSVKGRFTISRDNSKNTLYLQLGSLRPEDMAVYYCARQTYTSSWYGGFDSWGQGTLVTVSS VL: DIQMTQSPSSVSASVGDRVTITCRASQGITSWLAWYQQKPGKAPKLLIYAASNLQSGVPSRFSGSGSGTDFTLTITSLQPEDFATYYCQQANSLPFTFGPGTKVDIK

1. 1.3
2. 0.8

Quick check: t½ Ratio (pH 7.4/pH 6.0) of H1M9566N (antibody, mouse IgG1, V domains shown, Human variable domains, mouse IgG1 Fc (H1M)) VH: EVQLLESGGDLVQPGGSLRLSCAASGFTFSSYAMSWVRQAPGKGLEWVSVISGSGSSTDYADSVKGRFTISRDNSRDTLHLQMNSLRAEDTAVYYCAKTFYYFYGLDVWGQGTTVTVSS VL: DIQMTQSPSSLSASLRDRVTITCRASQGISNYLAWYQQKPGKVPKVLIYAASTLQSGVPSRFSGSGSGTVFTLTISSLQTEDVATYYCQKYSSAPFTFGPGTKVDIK ? 2.9
